These measurements were taken from the supplement of paper PMC9112550.

shrunken log2 fold change by entry:
# System: Escherichia coli TOP10;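 further: peptides expressed intracellularly from a pBAD plasmid library in pooled LB shake-flask culture, induced with 0.3% L-arabinose, DNA abundance read by NGS, three biological replicates, DESeq2 with apeglm shrinkage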
# Test Summary: shrunken log2 fold change of peptide-encoding DNA abundance (4.5 h post-induction vs induction); higher = less antimicrobial activity (less host growth inhibition)
# Condition: time post-induction: 4.5 h; library: site-saturation at positions 5, 18, 19, 20
Reply with just the number.

Please review the entries below; each comes with its answer.
[[record]]
residue_sequence = "RRIRDRPPRLPRPRPRPSLSPRP"
observed_result = -0.0503

[[record]]
residue_sequence = "RRIRNRPPRLPRPRPRPFNMPRP"
observed_result = -0.149


Incoming: Param item = RRIRFRPPRLPRPRPRPYLTPRP ; retrieve measured shrunken log2 fold change.
Outgoing: -0.875

Incoming: Param item = RRIRIRPPRLPRPRPRPCMWPRP ; retrieve measured shrunken log2 fold change.
Outgoing: -1.51

Incoming: Param item = RRIRTRPPRLPRPRPRPSKAPRP ; retrieve measured shrunken log2 fold change.
Outgoing: -0.0453

Incoming: Param item = RRIRQRPPRLPRPRPRPQDQPRP ; retrieve measured shrunken log2 fold change.
Outgoing: -0.276
